src = patent US20250375526A1

Target: IRAK4 (Homo sapiens, UniProt Q9NWZ3)
Construct: endogenous in cells; host or cells: OCI-Ly10
Assay: OCI-LY10 IRAK MSD assay DC50 (IRAK4 degradation)
Assay type: cell-based
Conditions: OCI-Ly10 cells, incubated for 4 hr, concentration of compound required to degrade 50% of protein
Protocol: A MSD assay is run to determine the concentration of compound required to degrade 50% of protein (DC50). • Compounds were reconstituted to 10 mM in stock solutions. The stock solutions were diluted to 5 mM and 45 μL of each dilution was transferred to a 384 pp-plate. […] (MSD, R92TC-2) • The MSD instrument was then read. The remaining activity was calculated following the formula below: • The DC50 was calculated by fitting the Curve using Xlfit (v5.3.1.3), equation 201: […]
assay_endpoint: DC50

- smiles_str: "O=C1CCN(c2cnc3c(C#CCN4CCN(C[C@H]5CC[C@H](n6cc(NC(=O)c7cnn8ccc(N9C[C@H]%10C[C@@H]9CO%10)nc78)c(C(F)F)n6)CC5)CC4)cccn23)C(=O)N1"
  DC50: "< 10 nM"

Value sought for every listed compound: DC50.
1. O=C1CCN(c2cnc3c(C4CCN(C[C@H]5CC[C@H](n6cc7cc(NC(=O)c8cccc(C(F)(F)F)n8)ccc7n6)CC5)CC4)cccn23)C(=O)N1
2. O=C1CCN(c2cnc3c(C4CCN(C[C@H]5CC[C@H](n6cc7cc(NC(=O)c8cccc(C(F)(F)F)n8)ncc7n6)CC5)CC4)cccn23)C(=O)N1
3. COc1cc2nc([C@H]3CC[C@H](CN4CCC(c5ccn6c(N7CCC(=O)NC7=O)cnc6c5)CC4)CC3)sc2cc1NC(=O)c1cccc(C(F)(F)F)n1
4. C[C@@H]1CN(C[C@H]2CC[C@H](n3cc(NC(=O)c4cnn5ccc(N6C[C@H]7C[C@@H]6CO7)nc45)c(C(F)F)n3)CC2)CC[C@H]1OCC#Cc1cccn2c(N3CCC(=O)NC3=O)cnc12

Reply text:
["> 200 nM", "10 to 100 nM", "10 to 100 nM", "< 10 nM"]

###

molecular target: IRAK4 (Homo sapiens); construct: endogenous in cells; host or cells: OCI-Ly10; test: OCI-LY10 IRAK MSD assay DC50 (IRAK4 degradation); type: cell-based; details: OCI-Ly10 cells, incubated for 4 hr, concentration of compound required to degrade 50% of protein
assay_endpoint: DC50

// each molecule listed below needs its DC50
1. O=C1CCN(c2cnc3cc(C4CCN(C[C@H]5C[C@H](n6cc7cc(NC(=O)c8cccc(C(F)(F)F)n8)ccc7n6)C5)CC4)ccn23)C(=O)N1 [I-85]
2. COc1cc2nn([C@H]3CC[C@H](CN4CCC(c5ccn6c(N7CCC(=O)NC7=O)cnc6c5)CC4)CC3)cc2cc1NC(=O)c1cc(F)cc(C(F)(F)F)c1
3. COc1cc2nn([C@H]3CC[C@H](CN(C)C4CCN(c5ccn6c(N7CCC(=O)NC7=O)cnc6c5)CC4)CC3)cc2cc1NC(=O)c1cncc(Cl)c1

Reply text:
> 200 nM
10 to 100 nM
10 to 100 nM

Each molecule below has a recorded value; state its DC50.
1. N#Cc1cc2nn([C@H]3CC[C@H](CN4CCC(c5ccn6c(N7CCC(=O)NC7=O)cnc6c5)CC4)CC3)cc2cc1NC(=O)c1cccc(C(F)(F)F)n1
2. O=C1CCN(c2cnc3cc(C#CCO[C@@H]4CCN(C[C@H]5C[C@H](n6cc(NC(=O)c7cnn8ccc(N9C[C@H]%10C[C@@H]9CO%10)nc78)c(C(F)F)n6)C5)C[C@@H]4F)ccn23)C(=O)N1
3. CN(C[C@H]1CC[C@H](n2cc3cc(NC(=O)c4cccc(C(F)(F)F)n4)c(C(C)(C)O)cc3n2)CC1)C1CCN(c2cccn3c(N4CCC(=O)NC4=O)cnc23)CC1
4. CC(C)(O)c1cc2nn([C@H]3CC[C@H](CNCCOCCOCC#Cc4ccn5c(N6CCC(=O)NC6=O)cnc5c4)CC3)cc2cc1NC(=O)c1cccc(C(F)(F)F)n1
5. N#Cc1cnc2c(C(=O)Nc3ccc4nn([C@H]5CC[C@H](CN6CCC(c7ccn8c(N9CCC(=O)NC9=O)cnc8c7)CC6)CC5)cc4c3)cnn2c1
6. O=C1CCN(c2cncc3cc(C#CCOC4CCN(C[C@H]5CC[C@H](n6cc(NC(=O)c7cnn8ccc(N9C[C@H]%10C[C@@H]9CO%10)nc78)c(C(F)F)n6)CC5)CC4)ccc23)C(=O)N1
7. COc1cc2nn([C@H]3CC[C@H](CN(C)C4CCN(c5cccn6c(N7CCC(=O)NC7=O)cnc56)CC4)CC3)cc2cc1NC(=O)c1cccc(C(F)(F)F)n1
8. O=C1CCN(c2cnc3cc(C4CCN(C[C@H]5CC[C@H](n6cc7cc(NC(=O)c8cccc(C(F)(F)F)n8)ccc7n6)CC5)CC4)ccn23)C(=O)N1

Reply text:
< 10 nM
< 10 nM
< 10 nM
10 to 100 nM
> 200 nM
> 200 nM
< 10 nM
> 200 nM

Inquiry: Which value of DC50 has been reported for O=C1CCN(c2cncc3c(C4CCN(C[C@H]5CC[C@H](n6cc7cc(NC(=O)c8cccc(C(F)(F)F)n8)ccc7n6)CC5)CC4)cccc23)C(=O)N1 in the records?
Reply text: 10 to 100 nM

###

Can you tell me DC50 for the items I'm about to list?
Molecular target: IRAK4 (Homo sapiens)
Construct: endogenous in cells; host or cells: OCI-Ly10
Sequence (Q9NWZ3 1-460): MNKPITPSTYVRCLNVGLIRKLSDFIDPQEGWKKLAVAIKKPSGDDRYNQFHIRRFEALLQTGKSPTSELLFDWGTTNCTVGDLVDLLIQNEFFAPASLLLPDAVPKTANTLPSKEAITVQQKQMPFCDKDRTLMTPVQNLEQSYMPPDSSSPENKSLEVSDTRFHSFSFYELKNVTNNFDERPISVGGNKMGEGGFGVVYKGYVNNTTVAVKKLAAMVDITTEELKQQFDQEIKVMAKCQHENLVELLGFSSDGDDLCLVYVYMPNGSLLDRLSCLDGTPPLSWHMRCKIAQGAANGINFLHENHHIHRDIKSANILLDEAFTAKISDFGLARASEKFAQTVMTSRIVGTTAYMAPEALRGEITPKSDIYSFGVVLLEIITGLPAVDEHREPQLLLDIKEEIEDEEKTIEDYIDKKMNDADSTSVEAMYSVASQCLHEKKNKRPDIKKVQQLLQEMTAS
Experiment: OCI-LY10 IRAK MSD assay DC50 (IRAK4 degradation)
Assay type: cell-based
Details: OCI-Ly10 cells, incubated for 4 hr, concentration of compound required to degrade 50% of protein
Protocol: A MSD assay is run to determine the concentration of compound required to degrade 50% of protein (DC50). • Compounds were reconstituted to 10 mM in stock solutions. The stock solutions were diluted to 5 mM and 45 μL of each dilution was transferred to a 384 pp-plate. […] (MSD, R92TC-2) • The MSD instrument was then read. The remaining activity was calculated following the formula below: • The DC50 was calculated by fitting the Curve using Xlfit (v5.3.1.3), equation 201: […]

- smiles_str: "CN(C[C@H]1CC[C@H](n2cc3cc(NC(=O)c4cccc(C(F)(F)F)n4)ccc3n2)CC1)C1CCN(c2ccc3c(N4CCC(=O)NC4=O)cncc3c2)CC1"
  DC50: "10 to 100 nM"
- smiles_str: "COc1cc2nn([C@H]3CC[C@H](CN4CCC(c5cccn6c(N7CCC(=O)NC7=O)cnc56)CC4)CC3)cc2cc1NC(=O)c1cncc(C#N)c1"
  DC50: "100 to 200 nM"

With those in mind, consider the next molecule.
Inquiry: What does the record list as DC50 for COc1cc2nn([C@H]3CC[C@H](CN4CCN(c5ccn6c(N7CCC(=O)NC7=O)cnc6c5)CC4)CC3)cc2cc1NC(=O)c1cccc(C(F)(F)F)n1 ?
Reply text: < 10 nM

###

molecular target: IRAK4 (Homo sapiens); construct: endogenous in cells; host or cells: OCI-Ly10; assay: OCI-LY10 IRAK MSD assay DC50 (IRAK4 degradation); assay type: cell-based; settings: OCI-Ly10 cells, incubated for 4 hr, concentration of compound required to degrade 50% of protein
assay_endpoint: DC50

- smiles_str: "COc1cc2nc([C@H]3CC[C@H](CN4CCC(c5cc(OC)c6ncc(N7CCC(=O)NC7=O)n6c5)CC4)CC3)sc2cc1NC(=O)c1cccc(C(F)(F)F)n1"
  DC50: "> 200 nM"
- smiles_str: "CN(C[C@H]1CC[C@H](n2cc3cc(NC(=O)c4cccc(C(F)(F)F)n4)ncc3n2)CC1)C1CCN(c2ccn3c(N4CCC(=O)NC4=O)cnc3c2)CC1"
  DC50: "< 10 nM"
- smiles_str: "C[C@@H]1CN(C[C@H]2CC[C@H](n3cc(NC(=O)c4cnn5ccc(N6C[C@H]7C[C@@H]6CO7)nc45)c(C(F)F)n3)CC2)CC[C@H]1OCC#Cc1ccn2c(N3CCC(=O)NC3=O)cnc2c1"
  DC50: "< 10 nM"

State recorded DC50 for all listed compounds.
1. COc1cc2nn([C@H]3CC[C@H](CN4CCCN(c5cccn6c(N7CCC(=O)NC7=O)cnc56)CC4)CC3)cc2cc1NC(=O)c1cccc(C(F)(F)F)n1
2. COc1cc2nn([C@H]3CC[C@H](CN4C5CCC4CN(c4cccn6c(N7CCC(=O)NC7=O)cnc46)C5)CC3)cc2cc1NC(=O)c1cccc(C(F)(F)F)n1

Reply text:
1. 10 to 100 nM
2. < 10 nM

// each listed compound needs a value for DC50
1. COc1cc2nn([C@H]3CC[C@H](CN(C)C4CCN(c5cccn6c(N7CCC(=O)NC7=O)cnc56)CC4)CC3)cc2cc1NC(=O)c1cc(F)cc(C(F)(F)F)c1
2. N#Cc1cc2nn([C@H]3CC[C@H](CN4CCC(c5cccn6c(N7CCC(=O)NC7=O)cnc56)CC4)CC3)cc2cc1NC(=O)c1cccc(C(F)(F)F)n1
3. CC(C)Nc1cc(-n2ccc3cc(C#N)cnc32)ncc1C(=O)N[C@H]1CC[C@H](CN2CCC(c3cccn4c(N5CCC(=O)NC5=O)cnc34)CC2)CC1

Reply text:
1. 10 to 100 nM
2. < 10 nM
3. 10 to 100 nM

Give DC50 for each listed item.
1. COc1cc2nn([C@H]3CC[C@H](CN4CCN(c5cccn6c(N7CCC(=O)NC7=O)cnc56)CC4)CC3)cc2cc1NC(=O)c1cccc(C(F)(F)F)n1
2. CN(C[C@H]1CC[C@H](n2cc3cc(NC(=O)c4cccc(C(F)(F)F)n4)ncc3n2)CC1)C1CCN(c2cccn3c(N4CCC(=O)NC4=O)cnc23)CC1

Reply text:
1: < 10 nM; 2: 100 to 200 nM

Inquiry: Which measured DC50 value corresponds to COc1cc2nn([C@H]3CC[C@H](CN4C[C@@H]5C[C@H]4CN5c4ccn5c(N6CCC(=O)NC6=O)cnc5c4)CC3)cc2cc1NC(=O)c1cccc(C(F)(F)F)n1 ?
Reply text: 10 to 100 nM
